Molecular target: UniProtKB P08069
Sequence (P08069 31-736 limits assumed): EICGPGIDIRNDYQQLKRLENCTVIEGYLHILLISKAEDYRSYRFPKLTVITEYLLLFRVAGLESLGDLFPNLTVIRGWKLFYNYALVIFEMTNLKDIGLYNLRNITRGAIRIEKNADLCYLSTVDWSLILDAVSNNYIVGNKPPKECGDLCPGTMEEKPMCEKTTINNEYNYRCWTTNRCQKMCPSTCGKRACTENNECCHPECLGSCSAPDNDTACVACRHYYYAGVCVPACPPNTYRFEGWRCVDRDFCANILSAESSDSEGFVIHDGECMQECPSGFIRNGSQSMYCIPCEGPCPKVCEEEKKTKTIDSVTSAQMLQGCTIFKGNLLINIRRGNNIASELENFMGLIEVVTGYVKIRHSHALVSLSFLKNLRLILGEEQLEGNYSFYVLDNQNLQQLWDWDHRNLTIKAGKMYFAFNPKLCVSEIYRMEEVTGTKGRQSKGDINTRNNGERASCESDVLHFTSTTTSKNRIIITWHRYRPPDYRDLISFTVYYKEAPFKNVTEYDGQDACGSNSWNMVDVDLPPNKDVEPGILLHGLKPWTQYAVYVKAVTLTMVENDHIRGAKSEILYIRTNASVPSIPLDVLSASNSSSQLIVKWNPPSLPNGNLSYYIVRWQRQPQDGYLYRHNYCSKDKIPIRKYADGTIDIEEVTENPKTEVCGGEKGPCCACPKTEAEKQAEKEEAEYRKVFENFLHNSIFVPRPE
Sequence (P08069 741-1367 limits assumed): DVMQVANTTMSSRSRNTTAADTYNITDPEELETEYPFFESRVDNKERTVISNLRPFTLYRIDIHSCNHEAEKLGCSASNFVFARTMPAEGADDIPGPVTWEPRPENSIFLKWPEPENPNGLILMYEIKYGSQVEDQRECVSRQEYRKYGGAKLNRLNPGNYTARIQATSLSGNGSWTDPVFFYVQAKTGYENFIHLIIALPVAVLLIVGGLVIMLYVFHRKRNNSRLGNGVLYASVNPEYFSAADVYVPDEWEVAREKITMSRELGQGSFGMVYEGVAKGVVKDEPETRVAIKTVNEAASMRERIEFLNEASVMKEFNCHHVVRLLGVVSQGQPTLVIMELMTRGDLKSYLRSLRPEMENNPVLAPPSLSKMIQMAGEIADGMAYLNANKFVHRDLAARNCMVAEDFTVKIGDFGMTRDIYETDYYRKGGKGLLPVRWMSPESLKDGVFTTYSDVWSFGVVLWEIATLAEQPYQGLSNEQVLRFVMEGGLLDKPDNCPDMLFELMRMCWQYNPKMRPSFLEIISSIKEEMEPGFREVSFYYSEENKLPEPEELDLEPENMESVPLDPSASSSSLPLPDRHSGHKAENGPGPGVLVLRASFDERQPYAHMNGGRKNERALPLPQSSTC
Test: Inhibition of IGF-induced autophosphosphorylation of GST-tagged human IGF1R expressed in SF21 cells after 10 mins by time resolved-fluorescent assay
Would you kindly list IC50 for each of these compounds?
Give bare numbers, in nM.

Solved cases below.
CCNc1cc(CN2C(=O)N(c3ccc(SC(F)(F)F)cc3)C(=O)C2(C)C)ccn1
154
CC1(C)C(=O)N(c2ccc(SC(F)(F)F)cc2)C(=O)N1Cc1ccncc1
264
CC(=O)Nc1cc(CN2C(=O)N(c3ccc(SC(F)(F)F)cc3)C(=O)C2(C)C)ccn1
98

Turning to the following compound.
Request: Given the compound CC1(C)C(=O)N(c2ccc(SC(F)(F)F)cc2)C(=O)N1Cc1ccnc(N)c1 , what is its reported IC50?
Response: 92
